- assayed-target: human activated kallikrein enzyme (Homo sapiens)
- assay-overview: Inhibition of human activated plasma kallikrein, fluorogenic PFR-AMC substrate, 500 pM enzyme format
- Format: biochemical
- experimental-conditions: 500 pM activated kallikrein; 300 μM PFR-AMC; 30 min preincubation; 10 min room temperature; pH 7.5; read-out: Primary Dose Response Assay: Average EC50
observable: EC50

# compound, endpoint-result
measured = [
    ("Cc1cc2c(N)nccc2c(C)c1CNc1cc(NCc2ccc(CO)cc2)ncn1 [Example I-461]", "1 to 10 nM"),
    ("CCOC(=O)CCc1cc(C2CC2)cc2cc(COc3cc(NCc4c(C)cc5c(N)nccc5c4C)ncn3)nn12 [Example 270]", "1 to 10 nM"),
    ("Cc1cc2c(Nc3cc(OCc4ccc5ncc(C6CC6)cc5c4)ccn3)nccc2c(C)c1CN [Example 238]", "100 to 1000 nM"),
    ("Cc1cc2c(N)nccc2c(C)c1CNC(=O)c1cnn(Cc2ccc(CC(=O)N3CCC3)c(Cl)c2)c1 [Example I-473]", "< 1 nM"),
    ("CCOC(=O)CCc1nc(NCc2c(C)cc3c(N)nccc3c2C)cc(OCc2cn3cc(C4CC4)ccc3n2)n1 [Example 274]", "1 to 10 nM"),
    ("Cc1cc2c(N)nccc2c(C)c1CNc1cc(OCc2ccc(Cn3ccccc3=O)cc2)ncn1 [Example 301]", "< 1 nM"),
    ("Cc1cc2cc(CNc3cc(NCc4c(C)cc5c(N)nccc5c4C)ncn3)cnc2cc1C [Example 325]", "1 to 10 nM"),
    ("COc1ccc2nc(CNc3cc(NCc4c(C)cc5c(N)nccc5c4C)ncn3)ccc2c1 [Example 307]", "10 to 100 nM"),
    ("Cc1ccc(Cn2cc(C(=O)NCc3c(C)cc4c(N)nccc4c3C)cn2)cc1Cl [Example 96]", "1 to 10 nM"),
    ("Cc1cc2c(N)nccc2c(C)c1CNc1cc(NCc2ccc3ncc(Cl)cc3c2)ncn1 [Example 309]", "< 1 nM"),
    ("Cc1cc2c(N)nccc2c(C)c1CNc1cc(NCc2ccccc2)cnn1 [Example 448]", "100 to 1000 nM"),
    ("Cc1cc2c(N)nccc2c(C)c1CNC(=O)c1cnn(Cc2ccc3ccc(Br)cc3n2)c1 [Example 156]", "1 to 10 nM"),
    ("Cc1cc2c(N)nccc2c(C)c1CNC(=O)c1cnn(Cc2ccc(Cn3ccccc3=O)cc2)c1 [Example 192]", "< 1 nM"),
    ("Cc1cc2c(N)nccc2c(C)c1CNC(=O)c1cnn(Cc2cn3cc(C4CC4(C)C)ccc3n2)c1 (stereo not shown) [Example 176]", "1 to 10 nM"),
    ("Cc1cc(Cn2cc(C(=O)NCc3c(C)cc4c(N)nccc4c3C)cn2)cc(C)c1Cc1ccccn1 [Example 169]", "< 1 nM"),
    ("CC(=O)Nc1nccc2c(C)c(CNc3cc(OCc4ccc(Cn5cccn5)cc4)cnn3)c(C)cc12 [Example I-470]", "10 to 100 nM"),
]

====

- assayed-target: human activated kallikrein enzyme (Homo sapiens, UniProt P03952)
- Sequence (P03952 391-638 limits assumed): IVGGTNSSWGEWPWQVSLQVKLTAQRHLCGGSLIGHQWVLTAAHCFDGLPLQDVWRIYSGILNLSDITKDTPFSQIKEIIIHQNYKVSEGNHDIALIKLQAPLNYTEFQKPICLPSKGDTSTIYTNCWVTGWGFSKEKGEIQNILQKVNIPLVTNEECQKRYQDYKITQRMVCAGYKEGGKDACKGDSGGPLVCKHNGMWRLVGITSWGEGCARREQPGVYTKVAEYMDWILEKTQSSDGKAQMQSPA
- Sequence (P03952 20-390 partner limits assumed): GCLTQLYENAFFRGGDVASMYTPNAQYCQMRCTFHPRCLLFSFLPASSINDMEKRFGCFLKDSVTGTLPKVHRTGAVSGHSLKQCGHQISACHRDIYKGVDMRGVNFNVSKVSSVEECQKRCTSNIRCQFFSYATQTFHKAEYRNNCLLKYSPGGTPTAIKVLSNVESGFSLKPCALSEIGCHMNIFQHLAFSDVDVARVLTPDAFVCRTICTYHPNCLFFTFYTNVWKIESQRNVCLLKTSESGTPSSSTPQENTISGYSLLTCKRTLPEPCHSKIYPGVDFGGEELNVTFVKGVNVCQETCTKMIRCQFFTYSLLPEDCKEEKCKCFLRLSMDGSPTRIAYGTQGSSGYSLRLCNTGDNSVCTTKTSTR
- assay-overview: Inhibition of human activated plasma kallikrein, fluorogenic PFR-AMC substrate, 500 pM enzyme format
- Assay type: biochemical
- experimental-conditions: 500 pM activated kallikrein; 300 μM PFR-AMC; 30 min preincubation; 10 min room temperature; pH 7.5; read-out: Primary Dose Response Assay: Average EC50
pEC50: −log10 of the molar value. Where a name gives a salt, the structure may show the parent alone.
observable: pEC50

# compound, endpoint-result
records = [
    ("Cc1ccc2nc(Cn3cc(C(=O)N(C)Cc4c(C)cc5c(N)nccc5c4C)cn3)cn2c1", "7.00 to 8.00"),
    ("Cc1cc2c(N)nccc2c(C)c1CNc1cc(NCc2ccc(Cc3ncccc3Cl)cc2)ncn1", "8.00 to 9.00"),
    ("Cc1cc2c(N)nccc2c(C)c1CNc1cc(OCc2cn3cc(C4CC4)ccc3n2)ncn1", "> 9.00"),
    ("Cc1cc2c(N)nccc2c(C)c1CNC(=O)c1cnn([C@H](C)c2ccccc2)c1", "6.00 to 7.00"),
    ("Cc1cc2c(N)nccc2c(C)c1CNC(=O)c1cnn(Cc2ccc(CC(=O)N3C[C@@H]4[C@H](C3)[C@@H]4C(=O)O)cc2)c1", "8.00 to 9.00"),
    ("Cc1cc2c(Nc3cc4c(cn3)nnn4Cc3cn4cc(C5CC5)ccc4n3)nccc2c(C)c1CN", "< 6.00"),
    ("Cc1cc2c(N)nccc2c(C)c1CNC(=O)c1cnn(Cc2cn3cc(C4CC4)c(Cl)cc3n2)c1", "> 9.00"),
    ("Cc1cc2c(N)nccc2c(C)c1CNC(=O)c1cnn(Cc2ccc(N(C)C(=O)N3CCCC3)cc2)c1", "8.00 to 9.00"),
    ("Cc1cnc2ccc(Cn3cc(C(=O)NCc4c(C)cc5c(N)nccc5c4C)cn3)cc2n1", "> 9.00"),
    ("Cc1cc2c(N)nccc2c(C)c1CNc1cc(NCc2ccc(Oc3ccccn3)cc2)ncn1", "8.00 to 9.00"),
    ("Cc1cc2c(N)nccc2c(C)c1CNc1cc(OCc2ccc(Cn3cccn3)cc2)c(C(F)(F)F)nn1", "8.00 to 9.00"),
    ("COc1nc2ccccc2cc1Cn1cc(C(=O)NCc2c(C)cc3c(N)nccc3c2C)cn1", "8.00 to 9.00"),
    ("Cc1cc2c(N)nccc2c(C)c1CNc1cc(NCc2ccc(Cc3ccc(Cl)cn3)cc2)ncn1", "8.00 to 9.00"),
    ("Cc1cc2c(N)nccc2c(C)c1CNC(=O)c1cnn(Cc2ccc(CC(=O)NC34CC(C3)C4)cc2)c1", "8.00 to 9.00"),
    ("Cc1cc2c(N)nccc2c(C)c1CNc1cc(OCc2cc3cc(Cl)ccc3s2)cnn1 [Example 417, formic acid salt]", "8.00 to 9.00"),
    ("Cc1cc2c(N)nccc2c(C)c1CNC(=O)c1cnn(Cc2ccc(Cc3cccn4ccnc34)cc2)c1", "> 9.00"),
    ("Cc1cc2c(N)nccc2c(C)c1CNC(=O)c1cnn(Cc2ccc(CC(=O)O)cc2)c1", "6.00 to 7.00"),
    ("Cc1cc2c(N)nccc2c(C)c1CNc1cc(NCc2nc3ccccc3s2)ncn1", "6.00 to 7.00"),
    ("Cc1ccc2nc(Cn3cc(C(=O)NCc4c(C)cc5c(N)nccc5c4C)cn3)cn2c1", "> 9.00"),
    ("Cc1cc2c(N)nccc2c(C)c1CNc1cc(NCc2ccc(Cc3ncnn3C)cc2)ncn1", "> 9.00"),
    ("Cc1cc2c(N)nccc2c(C)c1CNc1cc(NCc2ccc3ncc(C(F)(F)F)cc3c2)ncn1", "> 9.00"),
    ("Cc1cc2c(N)nccc2c(C)c1CNC(=O)c1cnn(Cc2ccc(CC(=O)NCc3ccccc3)cc2)c1", "7.00 to 8.00"),
    ("COC(=O)C(c1cn2cc(C)ccc2n1)n1cc(C(=O)NCc2c(C)cc3c(N)nccc3c2C)cn1 (stereo not drawn)", "6.00 to 7.00"),
    ("Cc1cc2c(N)nccc2c(C)c1CNC(=O)c1cnn(Cc2ccc(CC(=O)N3CCCCC3)cc2)c1", "8.00 to 9.00"),
]

====

Recorded measurements of pEC50, one per entry
- assayed-target: human activated kallikrein enzyme (Homo sapiens)
- assay-overview: Inhibition of human activated plasma kallikrein, fluorogenic PFR-AMC substrate, 500 pM enzyme format
- Type: biochemical
- experimental-conditions: 500 pM activated kallikrein; 300 μM PFR-AMC; 30 min preincubation; 10 min room temperature; pH 7.5; read-out: Primary Dose Response Assay: Average EC50
pEC50: −log10 of the molar value.

# compound, assayed-target, pEC50
data = [
    ("Cc1cc2c(N)nccc2c(C)c1CNC(=O)c1cnn(Cc2ccc(N(C)C(=O)N(C)C)cc2)c1", "human activated kallikrein enzyme (Homo sapiens)", "8.00 to 9.00"),
    ("Cc1cc2c(N)nccc2c(C)c1CNc1cc(OCc2cn3nc(C4CC4)ccc3n2)nc(C(F)(F)F)n1", "human activated kallikrein enzyme (Homo sapiens)", "7.00 to 8.00"),
    ("Cc1cc2c(N)nccc2c(C)c1CNc1cc(SCc2cn3cc(C4CC4)ccc3n2)ncn1", "human activated kallikrein enzyme (Homo sapiens)", "> 9.00"),
    ("Cc1cc2c(N)nccc2c(C)c1CNc1cc(OCc2nc3ncc(C4CC4)cn3n2)ncn1", "human activated kallikrein enzyme (Homo sapiens)", "8.00 to 9.00"),
    ("Cc1cccc(Cn2cc(C(=O)NCc3c(C)cc4c(N)nccc4c3C)cn2)c1", "human activated kallikrein enzyme (Homo sapiens)", "7.00 to 8.00"),
    ("Cc1cc2c(N)nccc2c(C)c1CNc1cc(NCc2ccc(Cc3nccs3)cc2)ncn1", "human activated kallikrein enzyme (Homo sapiens)", "> 9.00"),
    ("Cc1cc2c(N)nccc2c(C)c1CNc1cc(C(F)c2cn3cc(C4CC4)ccc3n2)ncn1 (stereo not shown) [Example 529]", "human activated kallikrein enzyme (Homo sapiens)", "8.00 to 9.00"),
    ("Cc1cc2c(N)nccc2c(C)c1CNc1cc2c(cn1)nnn2Cc1cn2cc(C3CC3)ccc2n1", "human activated kallikrein enzyme (Homo sapiens)", "> 9.00"),
    ("Cc1cc2c(N)nccc2c(C)c1CNC(=O)c1cnn(Cc2ccc(CC(=O)N(C)c3ccccc3)cc2)c1", "human activated kallikrein enzyme (Homo sapiens)", "8.00 to 9.00"),
    ("Cc1cc2c(N)nccc2c(C)c1CNc1cc(NCc2ccc(OCC(=O)N(C)C)cc2)ncn1", "human activated kallikrein enzyme (Homo sapiens)", "> 9.00"),
    ("Cc1cc2c(N)nccc2c(C)c1CNc1cc(OCc2ccc(Cc3cccn(C)c3=O)cc2)ncn1", "human activated kallikrein enzyme (Homo sapiens)", "8.00 to 9.00"),
    ("Cc1cc2c(N)nccc2c(C)c1CNc1cc(NCc2ccc(Cn3cc(Cl)cc(Cl)c3=O)cc2)ncn1", "human activated kallikrein enzyme (Homo sapiens)", "> 9.00"),
    ("Cc1cc2c(N)nccc2c(C)c1CNC(=O)c1cnn(Cc2cnc3cc(Cl)ccc3c2)c1", "human activated kallikrein enzyme (Homo sapiens)", "> 9.00"),
]

Value source: patent US20260374754A1
